// provenance: patent US7026443

# STUDY_TARGET: HLA-A*1101 (human)
ASSAY_METRIC: binding affinity ratio (IC50 of standard peptide / IC50 of test peptide)
API note: the answer field is a bare number with no unit suffix.

For orientation, consider the following solved cases.
• LLVRYKCGK (modifications not checked) [HPV16 E1 peptide … (position 277, 9 amino acids)] = 0.0033
• NSNAAAFLK (modifications not checked) [HPV18 E1 position 393 peptide …] = 0.37
• LVRNFKSDK (modifications not checked) [HPV18 E1 position 229 peptide …] = 0.0002
• CATMCRHYK (modifications not checked) [HPV16 E1 peptide … (position 405, 9 amino acids)] = 0.0098
• QMNMSQWIR (modifications not checked) [HPV18 E1 position 426 peptide …] = 0.0023
• SVAALYWYR (modifications not checked) [HPV18 E1 position 322 peptide …] = 8.8

Query :: Fill in the blank: the reported binding affinity ratio (IC50 of standard peptide / IC50 of test peptide) of MLIQPPKLR (modifications not checked) [HPV18 E1 position 312 peptide …] is ____.
Result :: 0.0014

Query :: What about NMSQWIRFR (modifications not checked) [HPV18 E1 position 428 peptide …] ?
Result :: 0.0012
